- method.summary: in vitro
- experimental.conditions: human
observation.type: CC50 (µM)

INSERT INTO results (compound, observation_type, readout_value) VALUES
  ('COc1cc(CNC(=O)c2cccc(NS(C)(=O)=O)c2)c(-c2ccc[nH]c2=O)cc1C(C)(C)C [Compound I-63]', 'CC50', 43.7),
  ('COc1cc(CNC(=O)c2ccc(O)cc2)c(-c2ccc[nH]c2=O)cc1C(C)(C)C [Compound I-38]', 'CC50', 92.9),
  ('COc1cc(CN(c2ccccc2)S(C)(=O)=O)c(-c2ccc[nH]c2=O)cc1C(C)(C)C [Compound I-34]', 'CC50', 44.2);
